system: Cav2.2 (Homo sapiens, UniProt Q00975)
Construct: expressed in transfected cells; host or cells: HEK-293T/17 (transient, FuGENE 6)
Sequence (Q00975 whole entry): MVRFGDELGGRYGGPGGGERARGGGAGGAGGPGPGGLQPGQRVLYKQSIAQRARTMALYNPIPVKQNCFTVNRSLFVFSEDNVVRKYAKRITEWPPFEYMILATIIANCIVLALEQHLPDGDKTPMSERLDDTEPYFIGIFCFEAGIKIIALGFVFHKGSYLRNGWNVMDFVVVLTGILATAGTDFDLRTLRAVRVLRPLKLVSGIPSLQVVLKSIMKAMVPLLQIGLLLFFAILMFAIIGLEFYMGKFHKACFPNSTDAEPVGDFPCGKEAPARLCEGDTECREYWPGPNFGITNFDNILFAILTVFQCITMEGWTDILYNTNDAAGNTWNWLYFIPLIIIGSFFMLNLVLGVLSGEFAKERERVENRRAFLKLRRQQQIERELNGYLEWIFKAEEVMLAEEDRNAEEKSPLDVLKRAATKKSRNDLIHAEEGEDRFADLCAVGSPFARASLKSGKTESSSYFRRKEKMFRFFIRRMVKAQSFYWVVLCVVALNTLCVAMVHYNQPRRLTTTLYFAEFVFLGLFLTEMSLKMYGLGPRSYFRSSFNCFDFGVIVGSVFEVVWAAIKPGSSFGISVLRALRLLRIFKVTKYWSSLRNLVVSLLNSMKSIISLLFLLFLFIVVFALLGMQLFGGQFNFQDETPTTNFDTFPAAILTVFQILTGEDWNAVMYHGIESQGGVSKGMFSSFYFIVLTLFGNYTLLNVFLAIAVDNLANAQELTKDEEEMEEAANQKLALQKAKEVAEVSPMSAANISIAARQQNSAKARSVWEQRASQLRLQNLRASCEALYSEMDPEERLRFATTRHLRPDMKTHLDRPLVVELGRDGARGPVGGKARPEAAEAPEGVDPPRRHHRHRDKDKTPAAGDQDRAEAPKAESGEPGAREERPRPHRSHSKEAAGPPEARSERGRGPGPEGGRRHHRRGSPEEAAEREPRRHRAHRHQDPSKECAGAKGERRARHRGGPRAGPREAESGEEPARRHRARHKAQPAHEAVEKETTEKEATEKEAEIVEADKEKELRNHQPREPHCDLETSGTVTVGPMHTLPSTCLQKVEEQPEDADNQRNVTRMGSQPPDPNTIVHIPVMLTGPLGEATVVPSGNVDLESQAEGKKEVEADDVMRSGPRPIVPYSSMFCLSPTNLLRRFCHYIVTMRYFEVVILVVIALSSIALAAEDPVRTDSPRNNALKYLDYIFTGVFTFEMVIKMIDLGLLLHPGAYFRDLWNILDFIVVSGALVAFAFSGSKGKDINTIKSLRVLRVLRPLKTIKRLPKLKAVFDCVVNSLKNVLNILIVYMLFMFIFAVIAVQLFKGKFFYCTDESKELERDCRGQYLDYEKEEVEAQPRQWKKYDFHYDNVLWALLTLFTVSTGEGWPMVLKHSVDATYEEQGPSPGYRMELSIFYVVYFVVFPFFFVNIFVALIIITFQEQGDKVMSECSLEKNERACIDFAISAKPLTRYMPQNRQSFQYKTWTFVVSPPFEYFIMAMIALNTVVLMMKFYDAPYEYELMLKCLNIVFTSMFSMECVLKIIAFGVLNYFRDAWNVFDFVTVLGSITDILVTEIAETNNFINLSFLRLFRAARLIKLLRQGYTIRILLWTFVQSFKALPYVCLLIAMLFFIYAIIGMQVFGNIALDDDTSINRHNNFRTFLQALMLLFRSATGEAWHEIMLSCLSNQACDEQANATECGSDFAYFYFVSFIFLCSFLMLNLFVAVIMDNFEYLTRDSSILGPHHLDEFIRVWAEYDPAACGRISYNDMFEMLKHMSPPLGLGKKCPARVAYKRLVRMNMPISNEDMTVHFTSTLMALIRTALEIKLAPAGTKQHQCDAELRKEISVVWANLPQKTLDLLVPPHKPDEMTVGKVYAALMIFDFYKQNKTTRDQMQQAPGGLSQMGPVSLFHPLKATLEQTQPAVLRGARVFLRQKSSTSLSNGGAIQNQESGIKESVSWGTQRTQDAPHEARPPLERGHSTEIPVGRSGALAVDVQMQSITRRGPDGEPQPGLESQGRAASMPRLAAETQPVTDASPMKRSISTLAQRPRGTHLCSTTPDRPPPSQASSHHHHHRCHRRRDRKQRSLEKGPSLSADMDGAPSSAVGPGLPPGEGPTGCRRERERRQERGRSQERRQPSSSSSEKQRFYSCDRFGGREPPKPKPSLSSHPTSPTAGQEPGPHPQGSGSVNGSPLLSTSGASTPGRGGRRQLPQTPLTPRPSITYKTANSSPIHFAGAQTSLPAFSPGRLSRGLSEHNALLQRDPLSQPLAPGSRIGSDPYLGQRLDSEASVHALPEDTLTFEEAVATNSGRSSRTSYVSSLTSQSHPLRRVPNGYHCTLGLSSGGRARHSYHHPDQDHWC
Sequence (P54284 whole entry partner): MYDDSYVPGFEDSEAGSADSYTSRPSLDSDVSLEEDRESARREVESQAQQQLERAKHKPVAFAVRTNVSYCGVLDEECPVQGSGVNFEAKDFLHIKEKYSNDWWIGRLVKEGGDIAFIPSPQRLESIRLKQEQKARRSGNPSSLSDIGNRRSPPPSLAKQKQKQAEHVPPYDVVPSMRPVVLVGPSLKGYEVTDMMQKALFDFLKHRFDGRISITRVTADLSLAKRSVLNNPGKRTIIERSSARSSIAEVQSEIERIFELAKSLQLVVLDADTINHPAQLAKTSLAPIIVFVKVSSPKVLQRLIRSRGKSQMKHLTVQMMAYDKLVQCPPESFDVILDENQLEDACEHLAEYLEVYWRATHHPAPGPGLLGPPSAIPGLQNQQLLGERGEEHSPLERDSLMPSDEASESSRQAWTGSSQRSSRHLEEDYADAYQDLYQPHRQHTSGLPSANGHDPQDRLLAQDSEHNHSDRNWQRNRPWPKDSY
Sequence (P54289 25-946 partner limits assumed): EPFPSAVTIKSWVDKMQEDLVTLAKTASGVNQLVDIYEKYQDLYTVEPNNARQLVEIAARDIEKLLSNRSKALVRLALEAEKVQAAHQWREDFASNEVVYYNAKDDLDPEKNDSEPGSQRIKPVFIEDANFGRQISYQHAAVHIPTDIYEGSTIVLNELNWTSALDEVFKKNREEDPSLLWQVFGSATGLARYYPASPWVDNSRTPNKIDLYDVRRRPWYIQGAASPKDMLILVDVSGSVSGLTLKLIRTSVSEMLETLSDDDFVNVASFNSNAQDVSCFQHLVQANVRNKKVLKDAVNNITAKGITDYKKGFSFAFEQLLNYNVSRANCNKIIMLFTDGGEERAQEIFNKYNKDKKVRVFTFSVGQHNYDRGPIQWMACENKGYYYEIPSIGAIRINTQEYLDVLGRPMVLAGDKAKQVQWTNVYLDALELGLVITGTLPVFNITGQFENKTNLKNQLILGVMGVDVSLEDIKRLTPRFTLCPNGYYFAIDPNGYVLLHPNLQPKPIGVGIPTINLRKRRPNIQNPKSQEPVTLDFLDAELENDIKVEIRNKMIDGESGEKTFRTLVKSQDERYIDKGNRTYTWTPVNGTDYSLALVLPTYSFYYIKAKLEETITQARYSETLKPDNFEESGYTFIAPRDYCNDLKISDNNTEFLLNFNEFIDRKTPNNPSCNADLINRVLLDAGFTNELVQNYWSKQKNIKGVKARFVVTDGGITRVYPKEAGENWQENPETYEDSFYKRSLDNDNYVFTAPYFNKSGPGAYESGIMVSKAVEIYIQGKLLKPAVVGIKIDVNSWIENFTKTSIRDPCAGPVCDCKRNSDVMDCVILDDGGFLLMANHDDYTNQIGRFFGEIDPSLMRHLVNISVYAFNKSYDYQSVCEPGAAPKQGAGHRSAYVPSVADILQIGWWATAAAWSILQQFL
Sequence (P54289 947-1103 partner limits assumed): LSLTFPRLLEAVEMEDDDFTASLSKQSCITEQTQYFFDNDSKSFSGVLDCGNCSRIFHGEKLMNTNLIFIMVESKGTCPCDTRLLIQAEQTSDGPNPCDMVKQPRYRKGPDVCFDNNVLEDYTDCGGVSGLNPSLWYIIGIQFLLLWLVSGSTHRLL
test details: HEK assay (whole-cell patch clamp, transiently transfected HEK-293T/17 cells, pulses P1 and P5)
Format: cell-based
experimental conditions: first pulse (P1) of 5 Hz train, holding potential −100 mV, read-out: HEK Cav2.2 P1 IC50
Structures can show the parent of a compound that is named as a salt.
Output 1 for records whose IC50 is lower than 7 µM, -1 for records at or above 7 µM.

[
  {
    "compound": "CCN(c1ccc(CN(C(=O)C(C)(C)C)c2ccc(N(C)C)cc2)cn1)C1CC1 [Compound 100]",
    "label value": -1
  },
  {
    "compound": "CC(C)(C)C(=O)N(Cc1ccc(N2CCN(c3ccccn3)CC2)nc1)c1ccc(F)cc1 [Compound 25]",
    "label value": 1
  },
  {
    "compound": "CC(C)(C)C(=O)N(Cc1cnc(N2CCCC2)s1)c1ccc(F)cc1 [Compound 1, hydrochloride]",
    "label value": -1
  },
  {
    "compound": "CN(CCO)c1ccc(CN(C(=O)C(C)(C)C)c2ccc(F)cc2)cn1 [Compound 38]",
    "label value": -1
  },
  {
    "compound": "Cc1cc(C)cc(N(Cc2ccc(N3CCN(C)CC3)nc2)C(=O)C(C)(C)C)c1 [Compound 32]",
    "label value": -1
  },
  {
    "compound": "CCN(c1ccc(CN(C(=O)C(C)(C)C)c2ccc(F)cc2)cn1)C1CC1 [Compound 7]",
    "label value": -1
  },
  {
    "compound": "CCN(CC)c1ccc(CN(C(=O)C(C)(C)C)c2ccc(F)cc2)cc1 [Compound 5, hydrochloride]",
    "label value": 1
  },
  {
    "compound": "CCN(CC)c1ccc(N(Cc2csc(N(C)c3ccc(F)cc3)n2)C(=O)C(C)(C)C)cc1 [Compound 88]",
    "label value": 1
  },
  {
    "compound": "CC(C)(C)C(=O)N(Cc1ccc(N2CCC(N3CCOCC3)CC2)nc1)c1ccc(F)cc1 [Compound 33]",
    "label value": -1
  },
  {
    "compound": "CCN(CC)c1ccc(CN(C(=O)CCC(C)C)c2ccc(N(C)C)cc2)cc1 [Compound 91]",
    "label value": 1
  },
  {
    "compound": "CCN(c1cccc(CN(C(=O)C(C)(C)C)c2ccc(F)cc2)c1)C1CC1 [Compound 6, hydrochloride]",
    "label value": 1
  },
  {
    "compound": "CCN(CC)c1ccc(N(Cc2cccc(N(CC)C3CC3)c2)C(=O)C(C)(C)C)cc1 [Compound 97]",
    "label value": 1
  },
  {
    "compound": "CCC(C)(C)C(=O)N(Cc1ccc(N2CCN(S(C)(=O)=O)CC2)nc1)c1ccc(F)cc1 [Compound 43]",
    "label value": -1
  },
  {
    "compound": "CCN(c1ccc(CN(C(=O)C2CCN(Cc3ccccc3)CC2)c2ccc(F)cc2)cn1)C1CC1 [Compound 12, dihydrochloride]",
    "label value": 1
  },
  {
    "compound": "CCN(CC)c1ccc(CN(C(=O)C(C)(C)C)c2ccc(F)cc2)cn1 [Compound 3, trifluoroacetate]",
    "label value": 1
  },
  {
    "compound": "CN(CCc1ccccn1)c1ccc(CN(C(=O)C(C)(C)C)c2ccc(F)cc2)cn1 [Compound 18]",
    "label value": 1
  },
  {
    "compound": "CCN(CC)c1ccc(CN(C(=O)C(C)(C)n2cc(Cc3ccccc3)nn2)c2ccc(F)cc2)cn1 [Compound 63]",
    "label value": 1
  },
  {
    "compound": "CN(Cc1ccco1)c1ccc(CN(C(=O)C(C)(C)C)c2ccc(F)cc2)cn1 [Compound 66]",
    "label value": 1
  },
  {
    "compound": "CCN(CC)c1ccc(CN(C(=O)CCC(C)C)c2ccc(NC)cc2)cc1 [Compound 99]",
    "label value": 1
  },
  {
    "compound": "CC(C)(C)C(=O)N(Cc1ccc(N2CCC(c3nc4ccccc4[nH]3)CC2)nc1)c1ccc(F)cc1 [Compound 53]",
    "label value": 1
  },
  {
    "compound": "CC(C)(C)C(=O)N(Cc1ccc(N2CCCC2)nc1)c1ccc(F)cc1 [Compound 42]",
    "label value": -1
  },
  {
    "compound": "CCN(CC)C1CCN(c2ccc(CN(C(=O)C(C)(C)C)c3ccc(F)cc3)cn2)C1 (stereo not drawn) [Compound 52]",
    "label value": -1
  },
  {
    "compound": "CN(CCOCc1cccnc1)c1ccc(CN(C(=O)C(C)(C)C)c2ccc(F)cc2)cn1 [Compound 47]",
    "label value": -1
  },
  {
    "compound": "CC(C)(C)C(=O)N(Cc1ccc(N2CCCC2CO)nc1)c1ccc(F)cc1 (stereo not drawn) [Compound 48]",
    "label value": -1
  },
  {
    "compound": "CCC(C)(C)C(=O)N(Cc1ccc(N2CCN(c3ccccn3)CC2)nc1)c1ccc(F)cc1 [Compound 26]",
    "label value": 1
  },
  {
    "compound": "CC(C)(C)C(=O)N(Cc1ccc(N2CCCCC2)nc1)c1ccc(F)cc1 [Compound 70]",
    "label value": -1
  },
  {
    "compound": "CNC1CCN(c2ccc(CN(C(=O)C(C)(C)C)c3ccc(F)cc3)cn2)C1 (stereo not drawn) [Compound 56]",
    "label value": 1
  },
  {
    "compound": "CN(C)c1ccc(N(Cc2csc(N(C)c3ccc(F)cc3)n2)C(=O)C(C)(C)C)cc1 [Compound 81]",
    "label value": 1
  },
  {
    "compound": "O=C(C1CCOC1)N(Cc1ccc(N2CCN(c3ccccn3)CC2)nc1)c1ccc(F)cc1 (stereo not drawn) [Compound 111]",
    "label value": -1
  },
  {
    "compound": "O=C(C1CCCO1)N(Cc1ccc(N2CCN(c3ccccn3)CC2)nc1)c1ccc(F)cc1 (stereo not drawn) [Compound 109]",
    "label value": -1
  },
  {
    "compound": "CCN(CC)c1ccc(CN(C(=O)C(C)(C)C)c2ccccc2C(C)C)cn1 [Compound 37]",
    "label value": 1
  },
  {
    "compound": "CN(C)c1ccc(N(Cc2cnc(N3CCCCC3)nc2)C(=O)C(C)(C)C)cc1 [Compound 85]",
    "label value": -1
  },
  {
    "compound": "CN1CCCN(c2ccc(CN(C(=O)C(C)(C)C)c3ccc(F)cc3)cn2)CC1 [Compound 22]",
    "label value": -1
  }
]
